meta.source: patent US7238685B2

Item-by-item account of IC50
Target: human recombinant ETA receptors (Homo sapiens)
Construct: expressed in transfected cells; host or cells: CHO cells (microsomal membranes)
Test: Inhibition of endothelin binding to membranes from CHO cells carrying human ET receptors (ETA)
Settings: read-out: IC50 ETA
Give the quantity in nM, number only.

Input line: Returns the measured IC50 for the input molecule. Input: Cc1cc(C)nc(O[C@H](C(=O)O)[C@@]2(c3ccccc3)NCC(=O)N(CC(=O)O)c3ccccc32)n1 (racemic)
Output line: 12

Input line: What do we get for COc1cc(CN2C(=O)CN[C@](c3ccccc3)([C@H](Oc3nc(C)cc(C)n3)C(=O)O)c3ccccc32)cc(OC)c1 (racemic) ?
Output line: 7

Input line: What do we get for Cc1cc(C)nc(O[C@H](C(=O)O)[C@@]2(c3ccccc3)NCC(=O)N(C)c3ccc(Cl)cc32)n1 (racemic) ?
Output line: 15

###

Molecular target: human recombinant ETA receptors (Homo sapiens, UniProt P25101)
Construct: expressed in transfected cells; host or cells: CHO cells (microsomal membranes)
Sequence (P25101 21-427): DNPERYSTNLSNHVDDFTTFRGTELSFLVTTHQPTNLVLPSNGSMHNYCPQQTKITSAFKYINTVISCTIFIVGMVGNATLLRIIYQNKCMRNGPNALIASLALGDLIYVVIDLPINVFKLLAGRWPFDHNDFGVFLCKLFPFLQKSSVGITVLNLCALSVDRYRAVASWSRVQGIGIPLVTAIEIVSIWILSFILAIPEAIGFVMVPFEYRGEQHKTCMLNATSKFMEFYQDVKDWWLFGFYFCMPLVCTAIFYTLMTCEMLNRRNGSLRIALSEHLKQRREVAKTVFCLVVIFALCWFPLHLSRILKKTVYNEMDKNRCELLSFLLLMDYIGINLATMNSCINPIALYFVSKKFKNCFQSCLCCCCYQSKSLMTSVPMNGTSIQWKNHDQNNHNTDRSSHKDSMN
Experiment: Inhibition of endothelin binding to membranes from CHO cells carrying human ET receptors (ETA)
Settings: read-out: IC50 ETA
Reported Property: IC50 (nM)
Give the quantity in nM, number only.

COc1cc(CN2C(=O)CN[C@](c3ccccc3)([C@H](Oc3nc(OC)cc(OC)n3)C(=O)O)c3ccccc32)cc(OC)c1 (racemic) [Example 40] :: 8

Input line: Returns the measured IC50 for the input molecule. Input: COc1cc(OC)nc(O[C@H](C(=O)O)[C@@]2(c3ccccc3)NCC(=O)N(C)c3ccccc32)n1 (racemic) [Example 39]
Output line: 29

Input line: What do we get for Cc1cc(C)c(CN2C(=O)CN[C@](c3ccccc3)([C@H](Oc3nc(C)cc(C)n3)C(=O)O)c3ccccc32)c(C)c1 (racemic) [Example 111] ?
Output line: 3

Input line: What do we get for COc1cc(CN2C(=O)CN[C@](c3ccccc3)([C@H](Oc3nc(OC)cc(OC)n3)C(=O)O)c3cc(Cl)ccc32)cc(OC)c1 (racemic) [Example 167] ?
Output line: 36

Input line: What do we get for Cc1cc(C)nc(O[C@H](C(=O)O)[C@@]2(c3cccc(-c4ccccc4)c3)NCC(=O)N(Cc3c(F)ccc(F)c3F)c3ccccc32)n1 (racemic) [Example 213] ?
Output line: 3

Input line: What do we get for Cc1cc(C)nc(O[C@H](C(=O)O)[C@@]2(c3ccccc3)NCC(=O)N(CCc3ccccc3)c3ccccc32)n1 (racemic) [Example 78] ?
Output line: 3

Input line: What do we get for Cc1cc(C)nc(O[C@H](C(=O)O)[C@@]2(c3ccccc3)NCC(=O)N(c3ccccc3)c3ccccc32)n1 (racemic) [Example 117] ?
Output line: 61

Input line: What do we get for Cc1cc(C)nc(O[C@H](C(=O)O)[C@@]2(c3ccccc3)NCC(=O)N(Cc3c(Cl)cccc3Cl)c3ccccc32)n1 (racemic) [Example 115] ?
Output line: 1

Input line: What do we get for CCCCc1ccc(CN2C(=O)CN[C@](c3cccc(CCCC)c3)([C@H](Oc3nc(C)cc(C)n3)C(=O)O)c3ccccc32)cc1 (racemic) [Example 223] ?
Output line: 7

Input line: What do we get for Cc1cc(C)nc(O[C@H](C(=O)O)[C@@]2(c3ccccc3)NCC(=O)N(Cc3c(F)cc(F)cc3F)c3ccccc32)n1 (racemic) [Example 107] ?
Output line: 1

Input line: What do we get for Cc1cc(C)nc(O[C@H](C(=O)O)[C@@]2(c3cccc(-c4ccccc4)c3)NCC(=O)N(Cc3c(F)cc(F)cc3F)c3ccccc32)n1 (racemic) [Example 211] ?
Output line: 6

Input line: What do we get for Cc1cc(C)nc(O[C@H](C(=O)O)[C@@]2(c3ccccc3)NCC(=O)N(C)c3ccccc32)n1 (racemic) [Example 49] ?
Output line: 17

Input line: What do we get for Cc1cc(C)nc(O[C@H](C(=O)O)[C@@]2(c3ccccc3)NCC(=O)N(CCc3cn(C)c4ccccc34)c3ccccc32)n1 (racemic) [Example 68] ?
Output line: 1

Input line: What do we get for Cc1cc(C)nc(O[C@H](C(=O)O)[C@]2(c3ccccc3)c3ccccc3N(Cc3c(F)cc(F)cc3F)C(=O)CN2C)n1 (racemic) [Example 129] ?
Output line: 6

Input line: What do we get for COC(=O)[C@@H](c1ccccc1)N1C(=O)CN[C@](c2ccccc2)([C@H](Oc2nc(C)cc(C)n2)C(=O)O)c2ccccc21 (relative stereo) [Example 52] ?
Output line: 11

###

Item-by-item account of pIC50
Molecular target: human recombinant ETA receptors (Homo sapiens, UniProt P25101)
Construct: expressed in transfected cells; host or cells: CHO cells (microsomal membranes)
Test: Inhibition of endothelin binding to membranes from CHO cells carrying human ET receptors (ETA)
// field semantics: pIC50 = negative decimal log of concentration (mol/L)

Cc1cc(C)nc(O[C@H](C(=O)O)[C@@]2(c3ccccc3)NCc3nnc(CC(=O)O)n3-c3ccccc32)n1 (racemic) :: 7.89

Kindly consider the entry below.
Input line: Returns the measured pIC50 for the input molecule. Input: Cc1cc(C)nc(O[C@H](C(=O)O)[C@@]2(c3ccccc3)NCC(=O)N(CCO)c3ccccc32)n1 (racemic)
Output line: 8.40

###

Molecular target: human recombinant ETB receptors (Homo sapiens)
Construct: expressed in transfected cells; host or cells: CHO cells (microsomal membranes)
Sequence (P24530 27-442): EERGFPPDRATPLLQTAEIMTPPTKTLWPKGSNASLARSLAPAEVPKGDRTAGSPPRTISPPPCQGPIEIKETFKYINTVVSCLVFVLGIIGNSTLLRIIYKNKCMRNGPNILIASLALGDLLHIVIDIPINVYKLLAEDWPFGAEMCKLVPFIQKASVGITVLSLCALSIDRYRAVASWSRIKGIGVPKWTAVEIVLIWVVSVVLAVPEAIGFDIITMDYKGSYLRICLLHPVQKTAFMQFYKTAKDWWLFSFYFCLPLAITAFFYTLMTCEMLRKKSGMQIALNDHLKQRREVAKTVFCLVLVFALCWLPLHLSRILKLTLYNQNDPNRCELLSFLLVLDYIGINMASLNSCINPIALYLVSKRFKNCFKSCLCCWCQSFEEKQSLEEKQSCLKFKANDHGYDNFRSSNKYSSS
Assay: Inhibition of endothelin binding to membranes from CHO cells carrying human ET receptors (ETB)
Details: read-out: IC50 ETB
Reported Property: IC50 (nM)
Give the quantity in nM, number only.

COc1cc(OC)nc(O[C@H](C(=O)O)[C@@]2(c3ccccc3)NCC(=O)N(C)c3ccccc32)n1 (racemic) :: 701
COc1cc(CN2C(=O)CN[C@](c3ccccc3)([C@H](Oc3nc(C)cc(C)n3)C(=O)O)c3ccccc32)cc(OC)c1 (racemic) :: 26

Input line: Returns the measured IC50 for the input compound. Input: Cc1cc(C)nc(O[C@H](C(=O)O)[C@@]2(c3cccc(-c4ccccc4)c3)NCC(=O)N(Cc3c(F)cc(F)cc3F)c3ccccc32)n1 (racemic)
Output line: 62

Input line: What do we get for Cc1cc(C)nc(O[C@H](C(=O)O)[C@@]2(c3ccccc3)NCC(=O)N(c3ccccc3)c3ccccc32)n1 (racemic) ?
Output line: 749
